Assay: chemical genetic growth profiling, strain panel (AID 1159580);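 note: tested at 20 µM; growth read once vehicle control cultures reached saturation at 30 °C; 1 = growth at the plate median or of vehicle wells; lower values mean less growth of the strain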
Conditions: S. cerevisiae deletion strains, growth OD, locus YOR069W, strain VPS5, stronger effect = lower value
The campaign covered roughly 5,500 compounds. About 2,000 (36%) were called active. Not shown: some 18% with an inconclusive outcome. This is one part of the list.
Listing of entries alongside the reported normalized growth.
Provide a numeric answer; units are not to be included.

compound	normalized growth
CC1(C)O[C@@H]2CC3C4CCC5=CC(=O)CCC5(C)C4(F)C(O)CC3(C)[C@]2(C(=O)CCl)O1 (some centres not stated)	0.99
COC(=O)C(O)c1ccccc1 (configuration not stated)	0.992
CCCCOC(=O)c1ccccc1C(=O)OCc1ccccc1	0.982
NC(N)=NS(=O)(=O)c1ccc(N)cc1	1.01

# input for lookup
QUERY: Param item = COC(=O)C(C)c1ccc(C(=O)c2cccs2)cc1 (configuration not stated) ; retrieve measured normalized growth.
RESULT: 0.986

---

Experiment: chemical genetic growth profiling, strain panel (AID 1159580);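 note: tested at 20 µM; growth read once vehicle control cultures reached saturation at 30 °C; 1 = growth at the plate median or of vehicle wells; lower values mean less growth of the strain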
Conditions: S. cerevisiae deletion strains, growth OD, locus YCL029C, strain bik1, stronger effect = lower value
The whole screen tested about 5,500 compounds, of which about 2,000 (36%) were called active. Another 18% or so got no clear call; they are omitted. This is one part of the list.
experimental_readout: normalized growth
Provide a numeric answer; units are not to be included.

Known normalized growth results, listed for orientation:
molecule	normalized growth
Cc1cccc(C(=O)O)c1O	1.02
NC(CO)C(=O)NNCc1ccc(O)c(O)c1O (stereo not drawn)	0.997
C=C1C(C)C2C(Cc3ccccc3)NC(=O)C23OC(=O)/C=C/C(O)CCCC(C)C/C=C/C3C1O (stereo not drawn)	0.997
CC(C)NCC(O)c1cc(O)cc(O)c1 (stereo not drawn)	0.983
OC(Cn1cncn1)(Cn1cncn1)c1ccc(F)cc1F	0.984

QUERY: Param item = O=c1cc[nH]c(=S)[nH]1 ; retrieve measured normalized growth.
RESULT: 1.01

QUERY: Param item = Cc1ccc(Cl)c(Nc2ccccc2C(=O)O)c1Cl ; retrieve measured normalized growth.
RESULT: 0.887

QUERY: Param item = C[N+]1(C)C2CC(OC(=O)[C@@H](CO)c3ccccc3)CC1C1OC12 (stereo partly drawn) ; retrieve measured normalized growth.
RESULT: 1

QUERY: Param item = Cc1c(Cl)cccc1Nc1ccccc1C(=O)O ; retrieve measured normalized growth.
RESULT: 0.812

QUERY: Param item = CC1(C)C2CC(=O)[C@]3(C)C(CC[C@@]4(C)[C@H](c5ccoc5)OC(=O)[C@H]5O[C@]543)[C@@]2(C)C=C[C@@H]1O (stereo partly drawn) ; retrieve measured normalized growth.
RESULT: 1

QUERY: Param item = O=C1CC2OCC=C3CN4CC[C@]56c7ccccc7N1C5[C@H]2[C@H]3CC46 (stereo partly drawn) ; retrieve measured normalized growth.
RESULT: 1

QUERY: Param item = O=C(O)c1cc2cc(Cc3cccnc3)ccc2o1 ; retrieve measured normalized growth.
RESULT: 0.995

---

Experiment: chemical genetic growth profiling, strain panel (AID 1159580);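 note: tested at 20 µM; growth read once vehicle control cultures reached saturation at 30 °C; 1 = growth at the plate median or of vehicle wells; lower values mean less growth of the strain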
Settings: S. cerevisiae deletion strains, growth OD, locus YKL193C, strain SDS22, stronger effect = lower value
Screen size: about 5,500 compounds; about 2,000 (36%) were called active. Another 18% or so got no clear call; they are omitted. The list shows a part of the results.
experimental_readout: normalized growth

Known normalized growth results, listed for orientation:
molecule	normalized growth
CCCCCCCCCCCC(=O)NOC(=O)c1c(-c2c(Cl)cccc2Cl)noc1C	0.979 (inactive)
N#CC(C#N)=Cc1ccc(-c2ccccc2C(F)(F)F)o1	0.942 (inactive)
CC(C)(CCC(C)(C)N1C(=O)c2cccc3cccc(c23)C1=O)N1C(=O)c2cccc3cccc(c23)C1=O	0.0977 (active)

QUERY: Param item = Cc1onc(-c2c(F)cccc2Cl)c1C(=O)ON=C1C2CC3CC(C2)CC1C3 ; retrieve measured normalized growth.
RESULT: 1.08 [resistant] (active)

QUERY: Param item = OC(CN1CCN(c2nc3ccc(Cl)cc3s2)CC1)Cn1ccc2ccccc21 (stereo not drawn) ; retrieve measured normalized growth.
RESULT: 0.994 (inactive)

QUERY: Param item = OC(=Cc1nc2ccccc2nc1C=C(O)c1ccc(Cl)cc1)c1ccc(Cl)cc1 ; retrieve measured normalized growth.
RESULT: 1 (inactive)

QUERY: Param item = CCc1ccn2cc(Nc3ccccc3Cl)nc2c1 ; retrieve measured normalized growth.
RESULT: 0.979 (inactive)

QUERY: Param item = Cc1onc(-c2c(Cl)cccc2Cl)c1C(=O)NNc1c(Cl)cccc1Cl ; retrieve measured normalized growth.
RESULT: 0.986 (inactive)

QUERY: Param item = S=c1[nH]nc(Nc2ccc(I)cc2)s1 ; retrieve measured normalized growth.
RESULT: 0.849 (active)
